Data provenance: paper PMC12133982

Target: HLA-C1402 (Homo sapiens, UniProt P10321, A176E/A330V/A35S/A97T/C350S/D114A/D33S/L171W/L180R/L218V/M285V/M309V/M331V/P208H/Q277E/Q291P/R121W/R243W/S123F/S297R/S48A/T329A/T363A/V319A)
Experiment: Competitive peptide binding assay, CIR-C1402
Conditions: HMy2.CIR-C1402 cells, reference Cy5-[…], class from inhibition at 5 and 15 μM, flow cytometry MFI; read-out: Binding affinity with HLA-C1402
Procedure: Then, competitive peptide binding assays were performed.
Peptide text beside a SMILES is read from it.
Result type: IC50

Req: # query: IC50 of entry CC(C)C[C@H](NC(=O)[C@@H](NC(=O)[C@@H](NC(=O)CNC(=O)[C@H](CCC(N)=O)NC(=O)[C@@H]1CCCN1C(=O)[C@H](CC(C)C)NC(=O)[C@H](CCC(N)=O)NC(=O)[C@@H](N)CC(C)C)[C@@H](C)O)[C@@H](C)O)C(=O)O [Epitope M13] (H-LQLPQGTTL-OH; N-terminus and C-terminus assumed)
Resp: > 15 µM
